Where these numbers come from: patent US11155844B2

Experiment: solubility of oAB in water depending on the pH
Type: physicochemical
Settings: plasma or biological fluid; pH between 3.0 and 4.0; fermentation broth; read-out: oAB remaining dissolved at the solubility minimum
Measured property: solubility

Qu. Given Nc1ccccc1C(=O)O , respond with its solubility.
Ans. ~5000 µg/mL
